Some compounds, each annotated with its measured IC50.
- TEST SYSTEM: human recombinant H-PGDS (Homo sapiens)
- Sequence (O60760 whole entry): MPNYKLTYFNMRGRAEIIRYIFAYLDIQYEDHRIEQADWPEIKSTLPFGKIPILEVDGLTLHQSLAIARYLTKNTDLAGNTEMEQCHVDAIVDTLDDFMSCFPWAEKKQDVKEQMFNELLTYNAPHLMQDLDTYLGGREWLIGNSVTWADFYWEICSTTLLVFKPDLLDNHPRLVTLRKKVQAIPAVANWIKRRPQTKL
- MEASUREMENT DESCRIPTION: Fluorescence Intensity h-PGDS TBA Enzyme Assay
- Type: biochemical
- EXPERIMENTAL PARAMETERS: 1:175,000 human recombinant H-PGDS, highest inhibitor concentration typically 1 μM
- Experimental: Fluorescence Intensity h-PGDSTBA Enzyme Assay Prostaglandin D Synthase (PGDS) converts the substrate prostaglandin H2 (PGH2) to prostaglandin D2. The depletion of PGH2 was measured via an Fe(II) reduction of the remaining PGH2 to malondialdehyde (MDA) and 12-HHT. […]
MEASURE: IC50 (nM)

>>> df
                                     smiles  measure  endpoint_unit  value_relation_sign  observed_measurement
0  Cc1cc(CNC(=O)c2ccc(-c3cccc(F)c3)nc2)c(C(F)(F)F)o1     IC50             nM                    =                   150
1  Cc1cccc(-c2ccc(C(=O)NCCc3nc(C)no3)cn2)c1     IC50             nM                    =                  85.5
2    O=C(NCCN1CCCCC1)c1ccc(-c2ccc(F)cc2)nc1     IC50             nM                    ≥                  1000
3      COc1cccc(-c2ccc(C(=O)NCCN(C)C)cn2)c1     IC50             nM                    ≥                  1000
4  O=C(NCc1cc(F)cc2c1OCOC2)c1ccc(-c2cccc(F)c2)nc1     IC50             nM                    =                  49.5
5  Cc1ccc(CNC(=O)c2ccc(-c3ccc(F)cc3)nc2)cc1     IC50             nM                    =                   327
6    O=C(NCC1(O)CCC1)c1ccc(-c2cccc(F)c2)nc1     IC50             nM                    =                  34.5
7   Cc1ncsc1CCCNC(=O)c1ccc(-c2cccc(F)c2)nc1     IC50             nM                    =                  4.88
8  O=C(NCc1nnc(-c2cccnc2)[nH]1)c1ccc(-c2cccc(F)c2)nc1     IC50             nM                    =                  9.36
